Target: c-Src SH2;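 note: peptide library displayed on the E. coli surface as eCPX fusions, selected cells deep-sequenced, score is each peptide's frequency after selection divided by its frequency in the input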
Assay: SH2 binding enrichment of the phosphorylated peptide, bacterial display (enrichment ratio); higher = better substrate or ligand; peptides without Tyr show the background
// FALSE strictly below 0.6 in SH2 binding enrichment; TRUE otherwise

*Q* # check: SH2 binding enrichment of VLVSQYEKLNA [AMZ2_Y26] is greater than or equal to 0.6
*A* TRUE

*Q* Please check the record QGLRLYRPHLA [BTK_Y617] and state if its SH2 binding enrichment is at or above 0.6.
*A* TRUE

*Q* Is SH2 binding enrichment for IITVHYVLEES [RYR2_Y4559_A4556T] at or above 0.6?
*A* TRUE

Values from the supplement of paper PMC10065799
